Target: T1, human CD7 (human, UniProt P09564 26-180, limits assumed)
T1 construct: The construct is not described
T1 sequence (looked up): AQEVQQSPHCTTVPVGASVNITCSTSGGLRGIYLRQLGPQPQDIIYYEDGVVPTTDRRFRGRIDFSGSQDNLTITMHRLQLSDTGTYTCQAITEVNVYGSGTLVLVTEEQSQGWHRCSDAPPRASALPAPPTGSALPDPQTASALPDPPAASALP
Test: SPR
Test Readout: Kd

Worked examples, 3 binders total:
7-PP-11 (Fab, V domains shown) VH: QVQLQESGAELVKPGASVKLSCKASGYTFTSYWMHWVKQRPGQGLEWIGKINPSNGRTNYNEKFKSKATLTVDKSSSTAYMQLSSLTSEDSAVYYCARGGVYYALYYAALDYWGQGTTVTVSS VL: DIELTQSPATLSVTPGDSVSLSCRASQSISNNLHWYQQKSHESPRLLIKSASQSISGIPSRFSGSGSGTDFTLSINSVETEDFGMYFCQQSNSWPYTFGGGTKLEIKR: 246 nM
CD7-PP-12 CD7 binding arm (Fab, V domains shown, Light chain Gln27Ala) VH: QVQLQESGAELVKPGASVKLSCKASGYTFTSYWMHWVKQRPGQGLEWIGKINPSNGRTNYNEKFKSKATLTVDKSSSTAYMQLSSLTSEDSAVYYCARGGVYYDLYYYALDYWGQGTTVTVSS VL: DIELTQSPATLSVTPGDSVSLSCRASASISNNLHWYQQKSHESPRLLIKSASQSISGIPSRFSGSGSGTDFTLSINSVETEDFGMYFCQQSNSWPYTFGGGTKLEIKR: 5.46 nM
CD7-PP-6 binding arm (Fab, V domains shown, Heavy chain Asp104Ala) VH: QVQLQESGAELVKPGASVKLSCKASGYTFTSYWMHWVKQRPGQGLEWIGKINPSNGRTNYNEKFKSKATLTVDKSSSTAYMQLSSLTSEDSAVYYCARGGVYYALYYYALDYWGQGTTVTVSS VL: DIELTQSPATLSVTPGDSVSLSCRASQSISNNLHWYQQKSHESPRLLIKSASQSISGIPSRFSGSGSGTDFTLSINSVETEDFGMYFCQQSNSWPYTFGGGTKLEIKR: 45.2 nM

Dear colleague, I am looking for the recorded Kd of the following binder: CD7-PP-2 CD7 binding arm (Fab, V domains shown, Heavy chain Arg57Gly) VH: QVQLQESGAELVKPGASVKLSCKASGYTFTSYWMHWVKQRPGQGLEWIGKINPSNGGTNYNEKFKSKATLTVDKSSSTAYMQLSSLTSEDSAVYYCARGGVYYDLYYYALDYWGQGTTVTVSS VL: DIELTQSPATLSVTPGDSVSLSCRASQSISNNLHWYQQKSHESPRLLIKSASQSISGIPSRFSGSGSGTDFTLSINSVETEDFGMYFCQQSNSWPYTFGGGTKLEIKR
75.7 nM

Next record, please: CD7-PP-3 CD7 binding arm (Fab, V domains shown, Heavy chain Arg57Lys) VH: QVQLQESGAELVKPGASVKLSCKASGYTFTSYWMHWVKQRPGQGLEWIGKINPSNGKTNYNEKFKSKATLTVDKSSSTAYMQLSSLTSEDSAVYYCARGGVYYDLYYYALDYWGQGTTVTVSS VL: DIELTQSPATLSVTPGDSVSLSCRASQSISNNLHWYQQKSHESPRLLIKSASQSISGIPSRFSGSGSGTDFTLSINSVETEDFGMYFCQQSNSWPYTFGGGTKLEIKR
32.5 nM

How about CD7-PP-13 CD7 binding arm (Fab, V domains shown, Heavy chain CDR3 Tyr108Ala; also called 7-PP-13 (mut_17-AA-1)) VH: QVQLQESGAELVKPGASVKLSCKASGYTFTSYWMHWVKQRPGQGLEWIGKINPSNGRTNYNEKFKSKATLTVDKSSSTAYMQLSSLTSEDSAVYYCARGGVYYDLYYAALDYWGQGTTVTVSS VL: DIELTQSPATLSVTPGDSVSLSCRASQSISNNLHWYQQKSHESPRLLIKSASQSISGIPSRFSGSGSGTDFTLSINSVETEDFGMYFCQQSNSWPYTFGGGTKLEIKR ?
44.5 nM

Further, for CD7-PP-1-WT CD7 binding arm (Fab, V domains shown, also called PP WT) VH: QVQLQESGAELVKPGASVKLSCKASGYTFTSYWMHWVKQRPGQGLEWIGKINPSNGRTNYNEKFKSKATLTVDKSSSTAYMQLSSLTSEDSAVYYCARGGVYYDLYYYALDYWGQGTTVTVSS VL: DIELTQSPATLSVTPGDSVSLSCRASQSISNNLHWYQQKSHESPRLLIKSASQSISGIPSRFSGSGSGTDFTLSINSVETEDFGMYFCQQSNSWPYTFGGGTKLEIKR ?
3.56 nM

Param item: CD7-PP-7 CD7 binding arm (Fab, V domains shown, Heavy chain Arg57Gly/Tyr108Ala) VH: QVQLQESGAELVKPGASVKLSCKASGYTFTSYWMHWVKQRPGQGLEWIGKINPSNGGTNYNEKFKSKATLTVDKSSSTAYMQLSSLTSEDSAVYYCARGGVYYDLYYAALDYWGQGTTVTVSS VL: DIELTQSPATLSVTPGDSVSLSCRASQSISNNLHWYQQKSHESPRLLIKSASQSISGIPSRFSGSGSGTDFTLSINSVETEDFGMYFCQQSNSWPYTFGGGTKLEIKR
541 nM

Try CD7-PP-8 CD7 binding arm (Fab, V domains shown) VH: QVQLQESGAELVKPGASVKLSCKASGYTFTSYWMHWVKQRPGQGLEWIGKINPSNGKTNYNEKFKSKATLTVDKSSSTAYMQLSSLTSEDSAVYYCARGGVYYDLYYAALDYWGQGTTVTVSS VL: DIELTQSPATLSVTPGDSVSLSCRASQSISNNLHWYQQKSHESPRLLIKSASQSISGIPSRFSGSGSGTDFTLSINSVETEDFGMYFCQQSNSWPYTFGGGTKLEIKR next.
229 nM
